biological target: Human TRPA1 expressing CHO cells (Homo sapiens); assay: 45Calcium uptake assay: inhibition of AITC induced cellular uptake of radioactive calcium; conditions: AITC 30 μM; human TRPA1 CHO cells; read-out: IC50 value (range)
Sequence (O75762 whole entry): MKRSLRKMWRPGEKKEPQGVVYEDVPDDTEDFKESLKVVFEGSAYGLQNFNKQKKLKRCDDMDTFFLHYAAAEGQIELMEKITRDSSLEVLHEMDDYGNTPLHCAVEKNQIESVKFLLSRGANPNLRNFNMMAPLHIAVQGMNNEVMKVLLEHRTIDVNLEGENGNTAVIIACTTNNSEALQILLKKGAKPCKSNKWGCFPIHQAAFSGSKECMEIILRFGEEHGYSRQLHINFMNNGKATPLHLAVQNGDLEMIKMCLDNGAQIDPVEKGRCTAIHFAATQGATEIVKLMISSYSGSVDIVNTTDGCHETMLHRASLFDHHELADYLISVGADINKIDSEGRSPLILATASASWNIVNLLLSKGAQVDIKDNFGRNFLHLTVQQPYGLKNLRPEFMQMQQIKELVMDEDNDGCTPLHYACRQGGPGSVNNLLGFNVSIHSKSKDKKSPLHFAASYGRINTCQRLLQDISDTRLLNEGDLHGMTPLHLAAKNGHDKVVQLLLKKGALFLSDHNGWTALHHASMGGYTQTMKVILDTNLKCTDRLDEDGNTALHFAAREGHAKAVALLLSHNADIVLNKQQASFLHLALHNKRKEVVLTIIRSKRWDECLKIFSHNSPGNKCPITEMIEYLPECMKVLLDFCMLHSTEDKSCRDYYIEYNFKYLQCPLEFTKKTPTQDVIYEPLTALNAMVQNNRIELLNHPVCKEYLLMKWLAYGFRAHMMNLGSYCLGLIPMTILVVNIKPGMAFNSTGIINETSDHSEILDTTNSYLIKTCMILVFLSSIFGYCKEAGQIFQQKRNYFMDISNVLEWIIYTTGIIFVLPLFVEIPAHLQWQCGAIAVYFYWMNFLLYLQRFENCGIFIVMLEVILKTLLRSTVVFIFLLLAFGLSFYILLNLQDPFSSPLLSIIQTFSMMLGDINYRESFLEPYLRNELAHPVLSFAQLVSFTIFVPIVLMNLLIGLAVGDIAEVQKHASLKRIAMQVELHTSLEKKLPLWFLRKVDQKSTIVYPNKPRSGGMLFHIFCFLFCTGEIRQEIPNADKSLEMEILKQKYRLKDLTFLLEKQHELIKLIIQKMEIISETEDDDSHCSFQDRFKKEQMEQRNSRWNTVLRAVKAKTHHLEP
pIC50: −log10 of the molar value.
attribute measured: pIC50

smiles data	pIC50
Cn1c(=O)c2c(CC(=O)Nc3nc(-c4ccc(F)cc4F)cs3)cccc2n(C)c1=O	> 7.30
Cn1c(=O)c2c(CC(=O)Nc3nc(-c4ccc(I)cc4)cs3)cccc2n(C)c1=O	7.00 to 7.30
CC(C)c1ccc(-c2csc(NC(=O)Cc3cccc4c3c(=O)n(C)c(=O)n4C)n2)cc1	7.00 to 7.30
Cn1c(=O)c2c(CC(=O)Nc3nc(-c4ccc(F)cc4Cl)cs3)cccc2n(C)c1=O	> 7.30
Cn1c(=O)c2c(CC(=O)Nc3nc(-c4cc(F)c(Cl)cc4Cl)cs3)cccc2n(C)c1=O	< 7.00
Cn1c(=O)c2c(CC(=O)Nc3nc(-c4ccc(OC(F)F)c(Cl)c4)cs3)cccc2n(C)c1=O	> 7.30

Entry under test: `Cn1c(=O)c2c(CC(=O)Nc3nc(-c4cc(F)c(OCC5CC5)c(F)c4)cs3)cccc2n(C)c1=O` . Its pIC50 was > 7.30

Lab book: pIC50 of `Cn1c(=O)c2c(CC(=O)Nc3nc(-c4cccc(C(F)(F)F)c4)cs3)cccc2n(C)c1=O` noted as > 7.30

Recorded result, `CCc1ccc(-c2csc(NC(=O)Cc3cccc4c3c(=O)n(C)c(=O)n4C)n2)cc1` , pIC50: 7.00 to 7.30

Please fill in: pIC50 reported for `Cc1ccc(-c2csc(NC(=O)Cc3cccc4c3c(=O)n(C)c(=O)n4C)n2)cc1` = 7.00 to 7.30

For reference, reported pIC50 for `Cn1c(=O)c2c(CC(=O)Nc3nc(-c4ccc(F)c(C(F)(F)F)c4F)cs3)cccc2n(C)c1=O` stands at > 7.30
